Source listed as PubChem BioAssay AID1195.

# System: human maximum recommended daily dose, FDA database
# MEASUREMENT_PROTOCOL: DSSTox (FDAMDD) FDA Maximum (Recommended) Daily Dose Database
# TEST_PARAMETERS: TherapeuticCategory: uricosuric; active compounds read low
PARAMETER: maximum recommended daily dose (mmol/kg-bw/day)

Data request: Recorded maximum recommended daily dose (mmol/kg-bw/day) of CCc1oc2ccccc2c1C(=O)c1cc(Br)c(O)c(Br)c1 , please.
Data returned: 0.0118

Data request: Using the record for CCN(CC)S(=O)(=O)c1ccc(C(=O)O)cc1 , report its maximum recommended daily dose (mmol/kg-bw/day).
Data returned: 0.194

Data request: Any idea what maximum recommended daily dose (mmol/kg-bw/day) was measured for O=C1C(CCS(=O)c2ccccc2)C(=O)N(c2ccccc2)N1c1ccccc1 (centres undefined) ?
Data returned: 0.0329

Data request: What does the data say about its maximum recommended daily dose (mmol/kg-bw/day)? Entry: CCCN(CCC)S(=O)(=O)c1ccc(C(=O)O)cc1
Data returned: 0.0585
